Target: T1, human IL-23 (human, UniProt Q9NPF7 20-189; P29460 23-328)
T1 construct: also called hIL-23; human recombinant IL-23
T1 sequence (looked up) 1: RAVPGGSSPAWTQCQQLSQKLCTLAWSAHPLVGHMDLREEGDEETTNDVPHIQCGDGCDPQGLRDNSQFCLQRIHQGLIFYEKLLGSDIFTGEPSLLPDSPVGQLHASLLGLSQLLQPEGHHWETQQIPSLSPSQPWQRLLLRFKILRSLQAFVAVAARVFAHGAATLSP
T1 sequence (looked up) 2: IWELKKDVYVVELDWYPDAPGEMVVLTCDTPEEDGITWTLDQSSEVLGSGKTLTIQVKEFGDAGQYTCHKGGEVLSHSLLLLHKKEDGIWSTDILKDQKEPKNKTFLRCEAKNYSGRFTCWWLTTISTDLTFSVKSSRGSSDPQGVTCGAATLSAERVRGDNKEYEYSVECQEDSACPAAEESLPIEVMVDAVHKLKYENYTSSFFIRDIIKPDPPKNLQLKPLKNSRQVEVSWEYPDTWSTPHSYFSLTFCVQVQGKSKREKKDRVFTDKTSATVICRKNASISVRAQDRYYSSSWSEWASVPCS
Test: SPR, Adnectin captured by anti-His mAb, IL-23 injected
measurement-type: kon (M⁻¹ s⁻¹)

Here's what some known entries look like.
1572F05 (designed binder, captured by anti-His mAb) MGVSDVPRDLEVVAATPTSLLISWGHYPLHIRYYRITYGETGGNSPVQEFTVPRQKYTATISGLKPGVDYTITVYAVTYYNEADYSQIPISINYRTEIDKPSQHHHHHH = 132000
1572B10 (designed binder, captured by anti-His mAb) MGVSDVPRDLEVVAATPTSLLISWGHYPMHVRYYRITYGETGGNSPVQEFTVPVPRHTATISGLKPGVDYTITVYAVTYYNEADYSQIPISINYRTEIDKPSQHHHHHH = 65300

1 = 1490H06 (designed binder, captured by anti-His mAb) MGVSDVPRDLEVVAATPTSLLISWGHYPLHIRYYRITYGETGGNSPVQEFTVPRQKYTATISGLKPGVDYTITVYAVTYYNEADYSQIPISINYRTEIDKPSQHHHHHH
2 = 1571G04 (designed binder, captured by anti-His mAb) MGVSDVPRDLEVVAATPTSLLISWGHYPLHVRYYRITYGETGGNSPVQEFTVPPRSHTATISGLKPGVDYTITVYAVTYYAQENYKEIPISINYRTEIDKPSQHHHHHH
Q) Larger number for kon: 1 , or 2 ? Choose, then provide that item's label.
A) 2
(2: 170000 M⁻¹ s⁻¹, 1: 93500 M⁻¹ s⁻¹)
